Origin of values: ChEMBL document CHEMBL1131106

# Test Target: Retinoic acid receptor RXR-alpha (Homo sapiens)
# Sequence (P19793 whole entry): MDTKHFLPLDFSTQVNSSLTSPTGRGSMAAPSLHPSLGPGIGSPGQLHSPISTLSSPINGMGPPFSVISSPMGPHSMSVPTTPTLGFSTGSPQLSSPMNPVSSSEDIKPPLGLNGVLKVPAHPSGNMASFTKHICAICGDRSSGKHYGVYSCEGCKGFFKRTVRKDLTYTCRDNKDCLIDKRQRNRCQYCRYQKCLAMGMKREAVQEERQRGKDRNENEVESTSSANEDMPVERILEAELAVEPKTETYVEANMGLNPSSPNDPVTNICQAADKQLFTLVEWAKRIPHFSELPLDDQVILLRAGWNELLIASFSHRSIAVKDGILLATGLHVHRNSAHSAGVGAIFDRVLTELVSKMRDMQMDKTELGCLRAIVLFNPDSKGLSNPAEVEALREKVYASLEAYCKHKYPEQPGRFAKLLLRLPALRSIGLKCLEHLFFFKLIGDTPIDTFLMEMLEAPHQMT
# Protocol Notes: Transcriptional activation in CV-1 cells expressing RXR-alpha receptor
pEC50: −log10 of the molar value.
Documented pEC50 across a set of molecules

Smiles Text	pEC50
CC(/C=C/C=C(\C)c1ccc2c(c1)C(C)(C)CS2)=C\C(=O)O	5.59
CC(/C=C/C=C(\C)c1ccc2c(c1)C(C)(C)CO2)=C\C(=O)O	5.55
CC(/C=C/C=C(\C)c1ccc2c(c1)C(C)(C)CCS2)=C\C(=O)O	5.57
CC(/C=C/C=C(\C)c1ccc2c(c1)C(C)(C)CCO2)=C\C(=O)O	5.55

* * *

Listed molecules paired with reported pEC50
# Test Target: Retinoic acid receptor gamma (Homo sapiens)
# Sequence (P13631 whole entry): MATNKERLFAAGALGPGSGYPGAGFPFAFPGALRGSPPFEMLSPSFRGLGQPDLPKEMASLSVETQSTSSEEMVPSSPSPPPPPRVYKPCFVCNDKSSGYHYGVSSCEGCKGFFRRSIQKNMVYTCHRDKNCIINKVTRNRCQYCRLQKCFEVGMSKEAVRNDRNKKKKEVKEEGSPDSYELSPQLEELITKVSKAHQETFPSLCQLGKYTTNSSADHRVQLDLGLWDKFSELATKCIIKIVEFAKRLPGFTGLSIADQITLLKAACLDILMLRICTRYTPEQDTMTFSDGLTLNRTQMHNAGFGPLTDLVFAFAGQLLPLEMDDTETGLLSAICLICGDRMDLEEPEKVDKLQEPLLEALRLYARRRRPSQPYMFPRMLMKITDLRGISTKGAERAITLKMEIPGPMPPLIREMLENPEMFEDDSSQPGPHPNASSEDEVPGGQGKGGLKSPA
# Protocol Notes: Transcriptional activation in CV-1 cells expressing RAR-gamma receptor
pEC50: −log10 of the molar value.
Quantity Name: pEC50

Smiles Text	Quantity Name	Value Reported
COC(=O)c1ccc(/C=C(\C)c2ccc3c(c2)C(C)(C)CCS3)cc1	pEC50	7.08
COC(=O)c1ccc(/C=C(\C)c2ccc3c(c2)C(C)(C)CO3)cc1	pEC50	6.40
C/C(=C\c1ccc(C(=O)O)cc1)c1ccc2c(c1)C(C)(C)CCO2	pEC50	6.70
CC(/C=C/C=C(\C)c1ccc2c(c1)C(C)(C)CO2)=C\C(=O)O	pEC50	6.64
CC(/C=C/C=C(\C)c1ccc2c(c1)C(C)(C)CS2)=C\C(=O)O	pEC50	8.10
CC(/C=C/C=C(\C)c1ccc2c(c1)C(C)(C)CCO2)=C\C(=O)O	pEC50	7.41
C/C(=C\c1ccc(C(=O)O)cc1)c1ccc2c(c1)C(C)(C)CO2	pEC50	6.34
COC(=O)c1ccc(/C=C(\C)c2ccc3c(c2)C(C)(C)CCO3)cc1	pEC50	6.48
C/C(=C\c1ccc(C(=O)O)cc1)c1ccc2c(c1)C(C)(C)CS2	pEC50	7.52
CC(/C=C/C=C(\C)c1ccc2c(c1)C(C)(C)CCS2)=C\C(=O)O	pEC50	7.92
